# System: KM-20L2
# Assay Info: NCI tumour cell line growth inhibition, 48 h
Active and inactive are the calls of the source. No stated cut-off is given here; in the data, active = GI50 up to about 1.1 µM and inactive = higher.
Reported GI50 values for the following compounds.

- Compound: "C[C@]12CCC(=O)C=C1CC[C@@H]1C2CC[C@]2(C)c3nn(-c4ccccc4)nc3CC12 (stereo partly specified)"
  Tgt: "KM-20L2"
  Assay Result: "> 100 µM (inactive)"
- Compound: "C=C(/C=C/C=C(\\CO)CCC=C(C)C)[C@H]1CCC2([C@H](CCCO)/C(=C(/C)C=O)CC[C@]2(C)O)[C@H]1O (stereo partly specified)"
  Tgt: "KM-20L2"
  Assay Result: "> 100 µM (inactive)"
- Compound: "COC(=O)C12OCC34C(CC5C(C)C6=CC(=O)OC6=CC5(C)C3C(O)C1O)OC(=O)C(OC(C)=O)C24 (stereo unspecified)"
  Tgt: "KM-20L2"
  Assay Result: "17 µM (inactive)"
- Compound: "COC1CC(Br)(C#N)C1 (stereo unspecified)"
  Tgt: "KM-20L2"
  Assay Result: "> 100 µM (inactive)"
- Compound: "CCN1CC2(C)CC[C@@H](OC)C34[C@@H]2[C@H](OC(C)=O)C2(OCO[C@@]25C[C@H](OC)C2C[C@]3(O)[C@@H]5[C@H]2O)[C@H]14"
  Tgt: "KM-20L2"
  Assay Result: "> 100 µM (inactive)"

Query :: GI50 lookup needed for `CN(C)Cc1[nH]c2ccccc2c1C(=O)c1ccccc1` , thanks.
Result :: 64.9 µM (inactive)

Query :: GI50 lookup needed for `Cc1ccccc1NC(=O)C(=O)CC(=O)c1c(C)[n+]([O-])c2ccccc2[n+]1[O-]` , thanks.
Result :: > 100 µM (inactive)

Query :: GI50 lookup needed for `O=S1(=O)CCCS(=O)(=O)C(c2ccccc2)=C1c1ccccc1` , thanks.
Result :: 37.2 µM (inactive)

Query :: GI50 lookup needed for COc1ccc(/C=C\c2cc(OC)c(OC)c(OC)c2)cc1OC(=O)CC(N)C(=O)O (stereo unspecified) , thanks.
Result :: 3.7 µM (inactive)

Query :: GI50 lookup needed for CCCCCCCCCCCCCCC1OC(=O)c2ccccc21 (stereo unspecified) , thanks.
Result :: 42.9 µM (inactive)

Query :: GI50 lookup needed for `COc1ccccc1CCc1cc(OC)c(OC)c(OC)c1` , thanks.
Result :: 55.8 µM (inactive)

* * *

# System: TK-10
# Assay Info: NCI tumour cell line growth inhibition, 48 h
Calls of active or inactive are those of the source. Cut-off read from the data, not from the text of the source: active = GI50 up to about 1.1 µM and inactive = higher.
Return exactly one item of label 1 for active, label 0 for inactive

As a guide, the following entries are already answered.
- Compound: "N#Cc1cc(-c2nc3cc(F)ccc3s2)ccc1N"
  Class Name: "label 1"
- Compound: "N[C@H](C(=O)O)[C@@H]1CC(Br)=NO1"
  Class Name: "label 0"
- Compound: "N#CCSc1c(-c2ccccc2)c(=O)n(-c2ccccc2)c(=S)n1-c1ccccc1"
  Class Name: "label 0"
- Compound: "COc1cccc(N2C(=O)C3C4C=C5c6ccccc6N(c6ccccc6)C5(C3C2=O)[C@H]2C(=O)N(c3cccc(OC)c3)C(=O)[C@@H]42)c1 (some centres not stated)"
  Class Name: "label 0"
- Compound: "c1ccc2c(c1)CC1COc3ccccc3C1O2 (configuration not stated)"
  Class Name: "label 0"
- Compound: "COc1ccc(/C=N/n2c(-c3ccccc3)n[nH]c2=O)c(OC)c1"
  Class Name: "label 0"
- Compound: "COc1ccc(-c2ccccc2)c2[nH]c3c(c12)CCNC3=O"
  Class Name: "label 0"
- Compound: "CSc1nc(Br)nc2c1ncn2C1CC(Oc2ccc(C)cc2)C(COc2ccc(C)cc2)O1 (configuration not stated)"
  Class Name: "label 0"
- Compound: "[N-]=[N+]=Nc1ccc(NCCCCCC(=O)ON2C(=O)CCC2=O)c([N+](=O)[O-])c1"
  Class Name: "label 0"
- Compound: "CC(C(=O)NCCNC(=O)CCCC(=O)N(C)O)C(=O)NCCNC(=O)CCCC(=O)N(C)O"
  Class Name: "label 0"

Query :: What is the recorded call for this compound in the test? `COC(=O)[C@@H]1CN(C(C)=O)C(=O)N1`
Result :: label 0

Query :: What is the recorded call for this compound in the test? C[C@H]1[C@H](C)CC[C@]2(C(=O)OC3OC(CO)C(O)C(O)C3O)CC[C@]3(C)C(=CC[C@@H]4[C@@]5(C)C[C@H]6OC(=O)c7cc(O)c(O)c(O)c7-c7c(cc(O)c(O)c7O)C(=O)O[C@@H]6C(CO)(CO)[C@@H]5CC[C@]43C)[C@H]12 (some centres not stated)
Result :: label 0
